B1: NELF-E aptamer (parent)
chain: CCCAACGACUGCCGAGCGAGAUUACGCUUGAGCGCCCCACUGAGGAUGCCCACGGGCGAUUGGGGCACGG

variants of: B1; assay: HiTS-RAP; conditions: with NELF-E (Drosophila)
Lab note: compare Kd with 5 nM, writing yes (1) if less and no (0) if equal or more.

MUTANT DESIGNATION | ASSIGNED LABEL
G14U U47A | no (0)
A5U G11A | no (0)
G70C | yes (1)
A8G G55A | no (0)
C13G A21G | yes (1)
G63U G65U | no (0)
A5U A52U | no (0)
A8U U29C | no (0)
A4G U28A | yes (1)
A19U A24G | no (0)
